Values were extracted from patent US12723255B2.

type: physicochemical; conditions: buffer, pH 7.5
recorded.endpoint: T1/2, temperature where 50% of the protein was unfolded, Buffer

[[record]]
molecule = "MON-HT2: engineered oxygenase protein, amino acid sequence SEQ ID NO:18 (protein) MHAALTPLTNKYRFIDVQPLTGVLGAEITGVDLREPLDDSTWNEILDAFHTYQVIYFPGQAITNEQHIAFSRRFGPVDPVPLLKSIEGYPEVQMIRREANESSRVIGDDWHSDSTFLDAPPAAVVMRAIEVPEYGGDTGFLSMYSAWETLSPTMQATIEGLNVVHSATKVFGSLYQATNWRFSNTSVKVMDVDAGDRETVHPLVVTHPVTGRRALYCNQVYCQKIQGMTDAESKSLLQFLYEHATKFDFTCRVRWKKDQVLVWDNLCTMHRAAPDYAGKFRYLTRTTVAGDKPSR"
reported_measurement = "55 °C"


Form: molecule = MON-HT6: engineered oxygenase protein, amino acid sequence SEQ ID NO:31 (protein) MHAALSPLSQKYRFIDVQPLTGVLGAEITGVTLREPLDDNTWNEILDAFHTYQVIYFPGQAITNEQHIAFSRRFGPVDPVPLLKSIEGYPEVQMIRREANESGRVIGDDWHTDSTFLDAPPAAVVMYAREVPPYGGDTGFLSMYSAWDTLSDTMKATIEGLNVVHSATRVFGSLYQAQNRRFSNTSVKVMDVDAGDRETVHPLVVSHPVTGRRALYCNQVYCQRIEGMTDAESKPLLQFLYEHATRFDFTCRVRWKKDQVLVWDNLCTMHRAVPDYAGKFRYLTRTTVAGDKPSR ; T1/2, temperature where 50% of the protein was unfolded, Buffer = 44 °C
